Target: HPK1 (Homo sapiens, UniProt Q92918)
Construct: A HiBiT tag was introduced by CRISPR on the N terminus of HPK1 in Jurkat cells; host or cells: Jurkat cells (ATCC TIB-152), monoclonal line with CRISPR knock-in of HiBiT at the endogenous HPK1 locus
Sequence (Q92918 whole entry): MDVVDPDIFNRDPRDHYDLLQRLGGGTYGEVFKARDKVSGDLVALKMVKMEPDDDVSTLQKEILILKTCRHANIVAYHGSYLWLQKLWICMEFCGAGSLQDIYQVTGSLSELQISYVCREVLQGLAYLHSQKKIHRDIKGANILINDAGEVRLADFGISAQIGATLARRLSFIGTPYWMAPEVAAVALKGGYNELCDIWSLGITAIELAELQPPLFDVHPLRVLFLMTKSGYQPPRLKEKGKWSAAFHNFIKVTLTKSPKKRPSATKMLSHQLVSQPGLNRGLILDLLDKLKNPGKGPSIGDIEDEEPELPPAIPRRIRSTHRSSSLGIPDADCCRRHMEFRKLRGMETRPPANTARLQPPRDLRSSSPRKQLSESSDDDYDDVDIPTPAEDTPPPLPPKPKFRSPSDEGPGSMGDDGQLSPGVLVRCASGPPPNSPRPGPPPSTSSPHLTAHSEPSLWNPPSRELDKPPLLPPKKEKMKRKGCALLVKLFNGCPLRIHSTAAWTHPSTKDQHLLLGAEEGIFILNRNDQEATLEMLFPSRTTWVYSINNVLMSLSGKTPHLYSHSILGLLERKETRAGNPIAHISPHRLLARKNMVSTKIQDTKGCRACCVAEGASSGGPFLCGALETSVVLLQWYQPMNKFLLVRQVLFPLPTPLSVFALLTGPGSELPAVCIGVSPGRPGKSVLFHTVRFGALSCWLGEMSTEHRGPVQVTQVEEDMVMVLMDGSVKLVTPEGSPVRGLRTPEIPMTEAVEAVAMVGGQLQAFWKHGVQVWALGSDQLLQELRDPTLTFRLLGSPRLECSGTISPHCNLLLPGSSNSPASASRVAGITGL
Experiment: HPK1 Cellular HiBit Degradation Assay
Format: cell-based
Conditions: Jurkat, HiBiT HPK1 Jurkat cells, 24 hrs; maximum degradation vs DMSO vehicle control; read-out: Dmax Category
readoutKind: Dmax

CC(C)n1cnc2cc(-c3ccc4c(c3)N([C@H]3C[C@@H](N5CCCCC5)C3)C(=O)C43CCN(C(=O)C4CCN(C(=O)C5CCN(c6ccc(N7CCC(=O)NC7=O)cc6)CC5)CC4)CC3)nc(Nc3ccncc3F)c21    70 to 85%

[ask] Return reported Dmax; argument: CC(C)n1cnc2cc(-c3ccc4c(c3)N([C@H]3C[C@@H](N5CCCCC5)C3)C(=O)C43CCN(C(=O)C4(C)CCN(C(=O)C5CCN(c6ccc(C7CCC(=O)NC7=O)cc6F)CC5)CC4)CC3)nc(NC3CC3)c21 (mixture of isomers)
[reply] 70 to 85%
